Where do these numbers come from? They come from patent US20240166738A1.

biological target: GST-TMEM106B (truncated, comprising amino acids 122-210 of SEQ ID NO:1) (Homo sapiens, UniProt Q9NUM4); experiment: Pre-mix epitope binning of anti-TMEM106B antibodies (Carterra / Lake Pharma); format: binding; set-up: key: Bin 1: competes for binding to the same or overlapping TMEM106B region as the TM1, TM17, TM22, TM26, TM79, and/or TM82 antibodies; Bin 2: competes for binding to the same or overlapping TMEM106B region as the TM3, TM9, TM10, TM11, TM12, TM13, TM18, TM19, TM21, TM24, TM25, TM32, TM35, TM37, TM42, TM45, TM48, TM54, TM59, TM60, TM61, and/or TM76 antibodies; Bin 3: competes for binding to the same or overlapping TMEM106B region as the TM7, TM15, TM83, and/or TM84 antibodies; Bin 4: competes for binding to the same or overlapping TMEM106B region as the TMS, TM28, TM29, TM30, TM63, TM64, TM72, TM78, TM80, TM86, and/or TM88 antibodies; Bin 5: does not bind to a truncated TMEM106B comprising amino acids 122-210 of SEQ ID NO:1; settings: competition for binding to truncated GST-TMEM106B (amino acids 122-210)
Sequence (Q9NUM4 122-210): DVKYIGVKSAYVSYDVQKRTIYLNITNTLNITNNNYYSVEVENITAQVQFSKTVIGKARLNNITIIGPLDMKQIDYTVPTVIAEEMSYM

{"columns": ["molecule", "epitope bin"],
 "data": [
  ["TM-30: anti-TMEM106B monoclonal antibody; CDR-H1-3 SEQ ID NO: 21, 61, 104; CDR-L1-3 SEQ ID NO: 144, 160, 208 (antibody, V domains shown) VH: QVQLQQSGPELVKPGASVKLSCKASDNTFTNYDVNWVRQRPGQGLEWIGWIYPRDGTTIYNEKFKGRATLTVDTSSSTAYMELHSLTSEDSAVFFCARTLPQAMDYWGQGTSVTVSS VL: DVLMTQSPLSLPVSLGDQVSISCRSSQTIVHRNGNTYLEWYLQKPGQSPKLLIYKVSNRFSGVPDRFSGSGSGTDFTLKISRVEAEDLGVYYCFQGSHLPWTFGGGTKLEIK", "Bin 4"],
  ["TM-64: anti-TMEM106B monoclonal antibody; VH SEQ ID NO: 470, VL SEQ ID NO: 506 (antibody, V domains shown, Variable Heavy Chain -- TM-64; Variable Light Chain -- TM-64) VH: QVQLQQPGAELVKPGASVKLSCKASGYTFTSYWMHWVKQRPGHGLEWIGNIDPSDSDTHYNQNFRGKATLTVDKFSTTAYMHLSSLTSEDSAVYYCARSRGGTYDYGEAMDYWGQGTSVTVSS VL: DIVMTQAAPSVPVTPGESVSISCRSSKSLLHTNGNTYLFWFLQRPGRSPQLLIYRMSNLASGVPDRFSGSGSGTAFTLRISRVEAEDVGVYYCMQHLEYPFTFGSGTKLEIK", "Bin 4"]
]}
